Biological target: T1, Peptide-20 (cysteine pairing not given here; also: biotinylated (site not given here))
T1 peptide: VDFCSFYRWPICET
Test: ELISA, Fab on captured biotin-peptide
Where no end group is shown, it is not given here.
Value Kind: EC50 (nM)
Numbers only here, please. The scale is nM.

// solved cases for EC50 follow
TBD-22 (HC D109A) (Fab, V domains shown, Fab; also called HC D109A mutant) VH: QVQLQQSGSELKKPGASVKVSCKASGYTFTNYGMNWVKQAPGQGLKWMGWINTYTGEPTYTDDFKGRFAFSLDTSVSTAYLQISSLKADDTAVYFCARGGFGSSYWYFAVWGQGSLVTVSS VL: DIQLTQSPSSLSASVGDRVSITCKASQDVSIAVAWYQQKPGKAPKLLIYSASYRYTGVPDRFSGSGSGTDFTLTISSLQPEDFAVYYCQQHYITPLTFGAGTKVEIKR: 5.3
TBD-17 (HC S104A) (Fab, V domains shown, Fab; also called HC S104A mutant) VH: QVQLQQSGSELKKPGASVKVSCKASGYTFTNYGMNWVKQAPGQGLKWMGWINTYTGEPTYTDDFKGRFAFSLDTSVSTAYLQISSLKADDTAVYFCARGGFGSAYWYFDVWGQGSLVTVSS VL: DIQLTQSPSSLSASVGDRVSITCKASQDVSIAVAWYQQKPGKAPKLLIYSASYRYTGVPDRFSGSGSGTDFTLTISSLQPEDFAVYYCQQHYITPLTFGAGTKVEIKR: 115

From here, focus on the item given below.
Lab book: EC50 of TBD-21 (HC F108A) (Fab, V domains shown, Fab; also called HC F108A mutant) VH: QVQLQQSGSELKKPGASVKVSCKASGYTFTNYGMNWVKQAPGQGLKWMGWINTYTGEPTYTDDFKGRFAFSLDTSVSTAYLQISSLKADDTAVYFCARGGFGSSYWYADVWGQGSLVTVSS VL: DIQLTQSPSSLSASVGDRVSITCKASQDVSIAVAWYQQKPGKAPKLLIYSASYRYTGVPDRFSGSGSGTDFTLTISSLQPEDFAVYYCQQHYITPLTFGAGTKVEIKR noted as 89
